Ref: patent US20230243070A1

Target: T1, NYESOpMHC (HLA-A*0201:NYESO1-9V), biotinylated recombinant complex (human)
T1 construct: also called NY-ESO-1 peptide-MHC complex
Assay: SPR (ProteOn), biotinylated pMHC on NLC chip, PBS with Tween
testReadout: pKd
One number for each entry, as −log10 of the molar value.

>  <binder>
DARPin® protein #25 (designed binder) MRGSHHHHHHGSDLGNKLLSAAIRGQDDEVRILLAAGADVNAKDIHGHTPLHAAAQFGHLEIVEVLLKAGADVNAKDFYGLTPLHLAAIFGHLEIVEVLLKAGADVNAQDEEGKTPADLAAVIGHEDIAEVLQKAA

>  <pKd>
9.76

$$$$
>  <binder>
DARPin® protein #30 (designed binder) MRGSHHHHHHGSDLGKKLLQAARAGQLDEVRELLKAGADVNAKDRFGIPLHIAASQGHLEIVEVLLKAGADVNAKDHWGETPLHLAAVFGHLEIVEVLLKAGADVNAKDHTGQTPLHLAAYLGHLEIVEVLLKAGADVNAQDKSGKTPADLAARAGHQDIAEVLQKAA

>  <pKd>
8.63

$$$$

Consider the additional binder presented here.
-- ask Look up pKd: DARPin® protein #21 (designed binder) MRGSHHHHHHGSDLGKKLLQAARAGQLDEVRELLKAGADVNAKDLIGVTPLHLAAFSGHLEIVEVLLKASADVNAKDVSGRTPLHVAAKHGHLEIVEVLLKAGADVNAKDLIGFTPLHLAAQFGHLEIVEVLLKAGADVNAQDKSGKTPADLAARAGHQDIAEVLQKAA
-- reply 9.06
